Each recorded value in this set is attributed to patent US20240376123A1.

- Tested on: p-ERK in PNAC-1/HPAC cell
- experimentSummary: Phospho-ERK 1/2 assay (Table 1)
- Assay type: cell-based
- testContext: Homo sapiens; PNAC-1/HPAC cell, 3 hours compound incubation; read-out: p-ERK IC50
Give IC50 for every item shown.
One number for each entry, in nM.

[
  {
    "molecule": "C#Cc1c(F)ccc2cccc(-c3nc4c5c(nc(OC[C@@]67CCCN6C[C@H](F)C7)nc5c3F)N3CC5CCC(N5)[C@@H]3CO4)c12 (single isomer, unassigned)",
    "IC50 (nM)": 308
  },
  {
    "molecule": "COc1ccc2cccc(-c3nc4c5c(nc(OC[C@@]67CCCN6C[C@H](F)C7)nc5c3F)N3C[C@@H]5CC[C@@H](N5)C3CO4)c2c1 (stereo partly drawn)",
    "IC50 (nM)": 1000
  }
]

# input Notebook: pull reported IC50 for p-ERK in PNAC-1/HPAC cell, entry Oc1cc(-c2nc3c4c(nc(OCC56CCCN5CCC6)nc4c2F)N2C[C@@H]4CC[C@@H](N4)C2CO3)c2c(Cl)cccc2c1 (stereo partly drawn)
# output 730
